All figures here come from patent US20230183352A1.

molecular target: Claudin 18.2 (CLDN18.2), expressed on CHOS-CLDN 18.2 / HEK293-CLDN 18.2 / HCC827-CLDN 18.2 cells (human, UniProt P56856-2 1-261); assay: cell-based or functional assay
PROPERTY: Killing percentage, ADCC (PBMC, HEK293-CLDN18.2 cells), 0.00256 µg/ml (%)
Answer format: numeric, % implied, no suffix.

Entry QP14451440 (antibody, human IgG1, kappa, V domains shown, Humanized from QP192193; also called QP14401445) VH: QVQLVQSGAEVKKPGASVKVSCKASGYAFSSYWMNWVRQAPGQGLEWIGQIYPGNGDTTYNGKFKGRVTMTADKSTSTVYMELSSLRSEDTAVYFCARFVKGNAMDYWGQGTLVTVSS VL: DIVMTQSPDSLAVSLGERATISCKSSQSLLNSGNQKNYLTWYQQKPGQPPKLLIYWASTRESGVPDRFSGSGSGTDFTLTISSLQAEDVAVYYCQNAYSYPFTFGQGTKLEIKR needs its Killing percentage, ADCC (PBMC, HEK293-CLDN18.2 cells), 0.00256 µg/ml filled in; supply it.
10.8
